# key: entry, value: Ki
target_entity: hOx1R (Homo sapiens (Human), UniProt O43613)
Sequence (O43613 whole entry): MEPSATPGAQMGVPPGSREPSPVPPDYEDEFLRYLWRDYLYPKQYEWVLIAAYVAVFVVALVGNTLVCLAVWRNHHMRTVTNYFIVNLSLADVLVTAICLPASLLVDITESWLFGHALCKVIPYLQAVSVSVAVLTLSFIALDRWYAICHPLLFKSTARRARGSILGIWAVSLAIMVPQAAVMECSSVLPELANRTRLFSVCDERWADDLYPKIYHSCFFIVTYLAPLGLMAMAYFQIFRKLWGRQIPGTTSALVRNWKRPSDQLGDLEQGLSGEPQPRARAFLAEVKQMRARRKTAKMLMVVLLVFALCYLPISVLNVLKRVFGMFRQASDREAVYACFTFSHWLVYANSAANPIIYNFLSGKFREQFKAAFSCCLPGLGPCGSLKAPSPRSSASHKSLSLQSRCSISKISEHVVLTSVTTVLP
test_details: Calcium accumulation in cells (FLIPR), hOx1R
condition: inhibition of orexin A induced calcium accumulation, Cheng and Prusoff correction
measure: Ki (nM)

• O=C1N(Cc2cnn3ccccc23)CCCC12CCN(c1cnc3ccccc3n1)CC2 = 2150
• Cc1nnc(-c2ccc(CN3CCCC4(CCN(c5cnc6ccccc6n5)CC4)C3=O)cc2)o1 = 3140
• O=C1CCCC2(CCN(c3cnc4ccccc4n3)CC2)N1Cc1ccccc1 = 1440
• O=C1N(Cc2c[nH]c3ccccc23)CCCC12CCN(c1nc3ccccc3o1)CC2 = 1020
• Cc1ccc(C)c(CN2CCCC3(CCN(c4cnc5ccccc5n4)CC3)C2=O)c1 = 945
• Cc1cccc(CN2CCCC3(CCN(c4cnc5ccccc5n4)CC3)C2=O)c1C = 1720
• O=C1N(Cc2c[nH]c3ccccc23)CCCC12CCN(c1nc3ccccc3s1)CC2 = 1360
• Cc1ncc(CN2CCCC3(CCN(c4cnc5ccccc5n4)CC3)C2=O)c2c1OC(C)(C)OC2 = 2380
• Cc1cc(C)cc(CN2CCCC3(CCN(c4cnc5ccccc5n4)CC3)C2=O)c1 = 1190

* * *

target_entity: hOx1R (Homo sapiens (Human), UniProt O43613)
test_details: Calcium accumulation in cells (FLIPR), hOx1R
condition: inhibition of orexin A induced calcium accumulation, Cheng and Prusoff correction
# key: entry, value: log10 Ki
measure: log10 Ki (log10 of the value in µM)

- O=C1N(Cc2cccc3nonc23)CCCC12CCN(c1cnc3ccccc3n1)CC2: 0.06
- Cc1nc2ccccn2c1CN1CCCC2(CCN(c3cnc4ccccc4n3)CC2)C1=O: 0.33
- O=C1N(Cc2ccccc2C(F)(F)F)CCCC12CCN(c1cnc3ccccc3n1)CC2: 0.44
- Cn1ncc2c(CN3CCCC4(CCN(c5cnc6ccccc6n5)CC4)C3=O)cccc21: 0.15
- O=C1N(Cc2ccccc2-c2ccco2)CCCC12CCN(c1cnc3ccccc3n1)CC2: -0.13
- O=C1CCCC2(CCN(c3cnc4ccccc4n3)CC2)N1Cc1cccc2[nH]ccc12: -1.89
- O=C1N(Cc2n[nH]c3ccccc23)CCCC12CCN(c1cnc3ccccc3n1)CC2: -0.90
- O=C1N(Cc2c[nH]c3ncccc23)CCCC12CCN(c1cnc3ccccc3n1)CC2: 0.01
- Cn1cc(CN2CCCC3(CCN(c4cnc5ccccc5n4)CC3)C2=O)c2ccccc21: -0.37
- O=C1N(Cc2c[nH]c3ccccc23)CCCC12CCN(c1nc3ccccc3[nH]1)CC2: 0.19
- O=C1CCCC2(CCN(c3cnc4ccccc4n3)CC2)N1Cc1noc2ccccc12: -0.62
- O=C1CCCC2(CCN(c3nc4ccccc4o3)CC2)N1Cc1cccc2[nH]ccc12: -1.70
- O=C1CCCC2(CCN(c3cnc4ccccc4n3)CC2)N1Cc1c[nH]c2ccccc12: -0.63
- O=C1N(Cc2c[nH]c3ccccc23)CCCC12CCN(c1cc(-c3ccccc3)ncn1)CC2: -0.33
- O=C1N(Cc2nccc3ccccc23)CCCC12CCN(c1cnc3ccccc3n1)CC2: 0.12
